Values compiled from patent US20090325959A1.

Kindly state pKi for each of the entries shown.
Target: ROCK2 (Homo sapiens, UniProt O75116)
Construct: purchased Upstate/Chemicon 14-451
Sequence (O75116 11-552 limits assumed): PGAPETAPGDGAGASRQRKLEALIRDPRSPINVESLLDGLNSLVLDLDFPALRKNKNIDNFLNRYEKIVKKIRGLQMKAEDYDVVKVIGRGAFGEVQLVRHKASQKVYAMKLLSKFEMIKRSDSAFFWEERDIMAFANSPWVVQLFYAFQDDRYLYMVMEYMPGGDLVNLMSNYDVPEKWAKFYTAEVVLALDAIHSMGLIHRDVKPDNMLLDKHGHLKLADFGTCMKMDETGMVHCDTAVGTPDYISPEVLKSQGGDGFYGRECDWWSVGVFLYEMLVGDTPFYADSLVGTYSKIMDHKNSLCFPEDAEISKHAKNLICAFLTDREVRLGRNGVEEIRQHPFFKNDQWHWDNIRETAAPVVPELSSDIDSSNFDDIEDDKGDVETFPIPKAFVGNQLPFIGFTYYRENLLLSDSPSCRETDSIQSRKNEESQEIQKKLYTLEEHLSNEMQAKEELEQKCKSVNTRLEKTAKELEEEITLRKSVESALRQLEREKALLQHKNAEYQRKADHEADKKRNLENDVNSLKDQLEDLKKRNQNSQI
Test: Rho kinase inhibition assay (IMAP fluorescence polarization), ROCK2;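 note: kinase reaction started with 10 µM ATP and run 60 min at room temperature, then phosphorylated substrate captured on IMAP beads for 30 min and fluorescence polarization read in mP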
Format: biochemical
Conditions: average Ki; read-out: ROCK2 Ki
Answers are plain numbers, as −log10 of the molar value.

Observe how each entry below is paired with its result.
>>> observed_result("Fc1ccc(CN2CCC[C@H](Nc3ccc4[nH]ncc4c3)C2)cc1")
8.21
>>> observed_result("c1cc2ccc(CN3CCC[C@H](Nc4ccc5[nH]ncc5c4)C3)cc2[nH]1")
8.44
>>> observed_result("c1cc2cc(CN3CCC[C@@H](Nc4ccc5[nH]ncc5c4)C3)ccc2s1")
8.20

Hi team, please reply with pKi for each item in this list.
1. CCS(=O)(=O)Nc1cc(CN2CCC[C@H](Nc3ccc4[nH]ncc4c3)C2)ccc1C
2. OCCOc1cc(CN2CC[C@@H](Nc3cccc4cnccc34)C2)ccc1F
3. c1ccc(CN2CC[C@@H](Nc3cccc4cnccc34)C2)cc1

Reply text:
1: 8.77; 2: 8.24; 3: 8.25

Hi team, please reply with pKi for each item in this list.
1. CCS(=O)(=O)Nc1cc(CN2CC[C@@H](Nc3cccc4cnccc34)C2)ccc1C
2. Cc1ccc(CN2CCC[C@@H](Nc3ccc4[nH]ncc4c3)C2)cc1

Reply text:
8.43
8.37
